Molecular target: Platelet-derived growth factor receptor (Mus musculus, UniProt P05622+P26618)
Test: Inhibition against of platelet-derived growth factor receptor (PDGFr)
Labelling field: enter true (1) if recorded IC50 is less than 500 nM. Enter false (0) if it equals or exceeds that cut-off.

Lookup: Given `CCN(CC)CCOc1ccc(Nc2ncc3cc(-c4c(Cl)cccc4Cl)c(=O)n(CC)c3n2)cc1` , is recorded IC50 strictly lower than 500 nM?
Found: true (1)

----------
Tested on: Rattus norvegicus
Experiment: Compound was tested for area under concentration -time curve from time 0 to time infinity in three male Wistar rats at a single 5 mg/kg oral gavage dose
Type: ADME, organism-based
Parameters: dose 5 mg/kg, route oral
Conditions: in vivo
Measured Endpoint: AUC (ng·h/mL)
Lab book: enter the figure in ng·h/mL, no units written.

Lookup: I would be grateful if you could share the reported AUC for `CCN(CC)CCOc1ccc(Nc2ncc3cc(-c4ccccc4)c(=O)n(CC)c3n2)cc1` .
Found: 828

----------
Test system: Rattus norvegicus
Assay: Compound was tested for area under concentration -time curve from time 0 to time of last detectable concentration in three male Wistar rats at a single 5 mg/kg oral gavage dose
Type: ADME, organism-based
Set-up: dose 5 mg/kg, route oral
Details: in vivo
Measured Endpoint: AUC (ng·h/mL)
Lab book: enter the figure in ng·h/mL, no units written.

Lookup: I would be grateful if you could share the reported AUC for `CCn1c(=O)c(-c2ccccc2)cc2cnc(Nc3ccncc3)nc21` .
Found: 4760

Lookup: // next record `CCN(CC)CCOc1ccc(Nc2ncc3cc(-c4ccccc4)c(=O)n(CC)c3n2)cc1`
Found: 525

----------
The following compounds are listed with their measured pIC50 values.
Target: Proto-oncogene tyrosine-protein kinase Src (Mus musculus, UniProt P05480)
Sequence (P05480 2-535 limits assumed): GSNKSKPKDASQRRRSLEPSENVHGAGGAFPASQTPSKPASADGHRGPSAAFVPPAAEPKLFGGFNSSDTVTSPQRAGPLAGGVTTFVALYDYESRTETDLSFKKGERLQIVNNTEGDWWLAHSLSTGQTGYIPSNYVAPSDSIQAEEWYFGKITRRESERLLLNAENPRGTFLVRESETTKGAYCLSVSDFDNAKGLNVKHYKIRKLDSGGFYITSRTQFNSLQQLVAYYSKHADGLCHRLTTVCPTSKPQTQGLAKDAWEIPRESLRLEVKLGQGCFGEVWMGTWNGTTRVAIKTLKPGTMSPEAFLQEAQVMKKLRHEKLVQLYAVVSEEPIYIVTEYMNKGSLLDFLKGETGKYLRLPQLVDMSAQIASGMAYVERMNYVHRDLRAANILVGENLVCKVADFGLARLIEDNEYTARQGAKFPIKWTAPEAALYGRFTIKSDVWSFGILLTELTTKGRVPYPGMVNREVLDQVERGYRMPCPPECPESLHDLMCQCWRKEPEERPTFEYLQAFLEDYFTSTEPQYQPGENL
Experiment: Inhibition of mouse c-Src tyrosine kinase
Reminder that pIC50 is minus the log10 of a molar concentration.

As a guide, the following entries are already answered.
Smiles Record: Nc1ncc2cc(-c3c(Cl)cccc3Cl)c(=O)n(Cc3ccccc3)c2n1
pIC50: 6.80
//
Smiles Record: Cn1c(=O)c(-c2c(Cl)cccc2Cl)cc2cnc(N)nc21
pIC50: 6.59
//
Smiles Record: COC(=O)Cn1c(=O)c(-c2c(Cl)cccc2Cl)cc2cnc(N)nc21
pIC50: 6.47
//
Smiles Record: CCN(CC)CCOc1ccc(Nc2ncc3cc(-c4ccccc4)c(=O)n(CC)c3n2)cc1
pIC50: 7.51
//
Smiles Record: CCn1c(=O)c(-c2ccccc2)cc2cnc(Nc3ccncc3)nc21
pIC50: 6.39

Lookup: I would be grateful if you could share the reported pIC50 for `CCn1c(=O)c(-c2c(Cl)cccc2Cl)cc2cnc(N)nc21` .
Found: 6.80

Lookup: // next record `CCn1c(=O)c(-c2ccccc2)cc2cnc(Nc3ccccc3)nc21`
Found: 5.74

Lookup: // next record `CC(C)(C)OC(=O)Cn1c(=O)c(-c2c(Cl)cccc2Cl)cc2cnc(N)nc21`
Found: 6.25

----------
Tested on: C6
Test: C6 glioma 3-day proliferation followed by soft agar growth without treatment
Format: functional, cell-based
Settings: Rattus norvegicus, C6, 72 h
Measured Endpoint: pIC50
Reminder that pIC50 is minus the log10 of a molar concentration.

Smiles Record: CCN(CC)CCOc1ccc(Nc2ncc3cc(-c4ccccc4)c(=O)n(CC)c3n2)cc1
Tested On: C6
Measurement: 6.82

Lookup: I would be grateful if you could share the reported pIC50 for `CCn1c(=O)c(-c2ccccc2)cc2cnc(Nc3ccncc3)nc21` .
Found: 4.88

----------
Biological target: Fibroblast growth factor receptor (Mus musculus, UniProt P21803+Q03142+P16092+Q61851)
Assay: Inhibition of mouse fibroblast growth factor receptor tyrosine kinase (FGFr)
Format: protein assay
Measured Endpoint: IC50 (nM)
Lab book: enter the figure in nM, no units written.

As a guide, the following entries are already answered.
Smiles Record: CCN(CC)CCOc1ccc(Nc2ncc3cc(-c4c(Cl)cccc4Cl)c(=O)n(CC)c3n2)cc1
IC50 (nM): 30

Smiles Record: CCN(CC)CCOc1ccc(Nc2ncc3cc(-c4ccccc4)c(=O)n(C)c3n2)cc1
IC50 (nM): 350

Smiles Record: Cn1c(=O)c(-c2ccccc2)cc2cnc(Nc3ccncc3)nc21
IC50 (nM): 4700

Now let's try a different one.
Lookup: I would be grateful if you could share the reported IC50 for `CC(C)Cn1c(=O)c(-c2c(Cl)cccc2Cl)cc2cnc(N)nc21` .
Found: 500

----------
The following molecules are listed with their measured half-life values.
Experiment: Compound was tested for apparent terminal phase elimination half life in three male Wistar rats at a single 5 mg/kg oral gavage dose
Assay type: ADME, organism-based
Set-up: dose 5 mg/kg, route oral
Settings: rat, in vivo
Lab book: enter the figure in h, no units written.

Smiles Record: CCN(CC)CCOc1ccc(Nc2ncc3cc(-c4ccccc4)c(=O)n(CC)c3n2)cc1
half-life, h: 6.65

Now let's try a different one.
Lookup: I would be grateful if you could share the reported half-life for `CCn1c(=O)c(-c2ccccc2)cc2cnc(Nc3ccncc3)nc21` .
Found: 3.72

----------
Target: Platelet-derived growth factor receptor (PDGFr) (Rattus norvegicus, UniProt P20786+Q05030)
Assay: Inhibition of PDGF-stimulated Platelet-derived growth factor receptor autophosphorylation in C6 rat glioma cells after 2 hr
Type: cell-based
Measured Endpoint: IC50 (µM)
Lab book: enter the figure in µM, no units written.

Smiles Record: CCn1c(=O)c(-c2ccccc2)cc2cnc(Nc3ccncc3)nc21
IC50 [µM]: 0.058

Now let's try a different one.
Lookup: I would be grateful if you could share the reported IC50 for `CCN(CC)CCOc1ccc(Nc2ncc3cc(-c4ccccc4)c(=O)n(CC)c3n2)cc1` .
Found: 0.003

----------
Target: Fibroblast growth factor receptor (Mus musculus, UniProt P21803+Q03142+P16092+Q61851)
Experiment: Inhibition of mouse fibroblast growth factor receptor tyrosine kinase (FGFr)
Format: protein assay
Measured Endpoint: IC50

As a guide, the following entries are already answered.
Smiles Record: CCn1c(=O)c(-c2ccccc2)cc2cnc(Nc3ccccc3)nc21
Measurement: 1.5 µM
--
Smiles Record: CCN(CC)CCOc1ccc(Nc2ncc3cc(-c4ccsc4)c(=O)n(C)c3n2)cc1
Measurement: 2.9 µM
--
Smiles Record: CNc1ncc2cc(-c3ccsc3)c(=O)n(C)c2n1
Measurement: > 50 µM
--
Smiles Record: COC(=O)Cn1c(=O)c(-c2c(Cl)cccc2Cl)cc2cnc(N)nc21
Measurement: 1.7 µM
--
Smiles Record: Nc1ncc2cc(-c3c(Cl)cccc3Cl)c(=O)n(CCCOCc3ccccc3)c2n1
Measurement: 3.2 µM

Lookup: I would be grateful if you could share the reported IC50 for `Cn1c(=O)c(-c2ccccc2)cc2cnc(Nc3ccccc3)nc21` .
Found: 5 µM

Lookup: // next record `Cn1c(=O)c(-c2ccc(-c3ccccc3)cc2)cc2cnc(Nc3ccccc3)nc21`
Found: > 50 µM

Lookup: // next record `Nc1ncc2cc(-c3c(Cl)cccc3Cl)c(=O)n(CC(=O)O)c2n1`
Found: 7.9 µM

Lookup: // next record `Nc1ncc2cc(-c3c(Cl)cccc3Cl)c(=O)n(Cc3ccccc3)c2n1`
Found: 1.4 µM

Lookup: // next record `Cn1c(=O)c(-c2ccsc2)cc2cnc(N)nc21`
Found: > 50 µM

Lookup: // next record `Cn1c(=O)c(-c2cccs2)cc2cnc(Nc3ccccc3)nc21`
Found: > 50 µM

Lookup: // next record `CCCCn1c(=O)c(-c2c(Cl)cccc2Cl)cc2cnc(N)nc21`
Found: 0.58 µM

Lookup: // next record `Nc1ncc2cc(-c3c(Cl)cccc3Cl)c(=O)n(CCCO)c2n1`
Found: 0.37 µM

Lookup: // next record `CCN(CC)CCOc1ccc(Nc2ncc3cc(-c4ccccc4)c(=O)n(CC)c3n2)cc1`
Found: 0.088 µM

Lookup: // next record `Cn1c(=O)c(-c2c(Cl)cccc2Cl)cc2cnc(N)nc21`
Found: 1.3 µM

Lookup: // next record `Cn1c(=O)c(-c2ccsc2)cc2cnc(Nc3ccncc3)nc21`
Found: 22.6 µM

Lookup: // next record `Cn1c(=O)c(-c2ccsc2)cc2cnc(Nc3ccccc3)nc21`
Found: > 50 µM

Lookup: // next record `CCn1c(=O)c(-c2ccsc2)cc2cnc(Nc3ccccc3)nc21`
Found: > 50 µM

Lookup: // next record `CC(C)(C)OC(=O)Cn1c(=O)c(-c2c(Cl)cccc2Cl)cc2cnc(N)nc21`
Found: 1.7 µM

Lookup: // next record `CCn1c(=O)c(-c2ccccc2)cc2cnc(Nc3ccncc3)nc21`
Found: 1.1 µM

Lookup: // next record `CN(C)CCCn1c(=O)c(-c2c(Cl)cccc2Cl)cc2cnc(N)nc21`
Found: 0.88 µM

Lookup: // next record `CCCn1c(=O)c(-c2c(Cl)cccc2Cl)cc2cnc(N)nc21`
Found: 0.51 µM

----------
Molecular target: Platelet-derived growth factor receptor (Mus musculus, UniProt P05622+P26618)
Assay: Inhibition against of platelet-derived growth factor receptor (PDGFr)
Measured Endpoint: pIC50
Reminder that pIC50 is minus the log10 of a molar concentration.

As a guide, the following entries are already answered.
Smiles Record: CCn1c(=O)c(-c2ccccc2)cc2cnc(Nc3ccncc3)nc21
pIC50: 7.13
--
Smiles Record: CCn1c(=O)c(-c2c(Cl)cccc2Cl)cc2cnc(N)nc21
pIC50: 6.01
--
Smiles Record: Nc1ncc2cc(-c3c(Cl)cccc3Cl)c(=O)n(Cc3ccncc3)c2n1
pIC50: 5.92
--
Smiles Record: CC(C)(C)OC(=O)Cn1c(=O)c(-c2c(Cl)cccc2Cl)cc2cnc(N)nc21
pIC50: 5.14

Lookup: I would be grateful if you could share the reported pIC50 for `Cn1c(=O)c(-c2ccccc2)cc2cnc(Nc3ccncc3)nc21` .
Found: 6.49

Lookup: // next record `CN(C)CCCn1c(=O)c(-c2c(Cl)cccc2Cl)cc2cnc(N)nc21`
Found: 5.74

Lookup: // next record `Nc1ncc2cc(-c3c(Cl)cccc3Cl)c(=O)n(Cc3ccccc3)c2n1`
Found: 5.38

Lookup: // next record `CCn1c(=O)c(-c2ccsc2)cc2cnc(Nc3ccccc3)nc21`
Found: 6.39

Lookup: // next record `CCn1c(=O)c(-c2ccccc2)cc2cnc(Nc3ccccc3)nc21`
Found: 6.74
